Consider the following binders and their measured kon readings.
Biological target: T1, Recombinant MBP-mutCALR Type 1 fusion protein (human)
T1 construct: custom made at Cepter; also called recombinant mutCALR protein
Assay: SPR, IgG captured, 1:1 fit, Exp. 2
Report field: quantity (unit follows the number).

anti-mutCALR antibody clone 81 (antibody, human IgG1, lambda, N297A, V domains shown, human IgG1 N297A variant of clone 6) VH: EVQLVQSGAEVKKPGASVKVSCKVSGYTLTELSMQWVRQAPGKGLEWMGGFDPDAGETMYAEKFQGRLTVTEDTSTDTVYMELSSLRSEDTAVYFCATSPGYDFFDYWGQGTLVTVSS VL: SYVLTQPPSVSVAPGKTARITCGGNNIGSKSVHWYQQKPGQAPVLVVYDDSDRPSGIPERFSGSNSGNTATLTISRVEAGDEADYYCQVWDSSNDLLIFGGGTKLTVLG: 746000 M⁻¹ s⁻¹
anti-mutCALR antibody clone 56 (antibody, human IgG1, lambda, N297A, V domains shown, human IgG1 N297A variant of clone 6) VH: EVQLVQSGAEVKKPGASVKVSCKVSGYTLTELSMQWVRQAPGKGLEWMGGFDPDAGETMYAEKFQGRLTVTEDTSTDTVYMELRSLTSEDTALYFCATSPGYDFFDYWGQGTLVTVSS VL: QSALTQPASVSGSPGQSITISCTGTSSDVGGYNYVSWYQQHPGKAPKLMIYEVSNRPSGVSNRFSGSNSGNTATLTINRVEAGDEADYYCQVWDSSNDLLIFGGGTKLTVLG: 690000 M⁻¹ s⁻¹
anti-mutCALR antibody clone 176 (antibody, human IgG1, lambda, N297A, V domains shown) VH: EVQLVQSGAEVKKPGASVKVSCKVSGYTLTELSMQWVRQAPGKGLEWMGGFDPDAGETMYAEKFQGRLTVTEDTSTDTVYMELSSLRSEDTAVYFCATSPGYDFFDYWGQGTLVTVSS VL: SYVLTQPPSVSVAPGQTARITCGGSDIGDEIVHWYQQKPGQAPVLVVYDDSDRPSGIPERFSGSNSGNTATLTISRAQAGDEADYYCQVWDSSSDHLIFGGGTKLTVLG: 994000 M⁻¹ s⁻¹
anti-mutCALR antibody clone 128 (antibody, human IgG1, lambda, N297A, V domains shown, human IgG1 N297A variant of clone 15) VH: EVQLVQSGAEVKKPGASVKVSCKVSGYTLTELSMQWVRQAPGKGLEWMGGFDPDDAETMYAEKFQGRLTVTEDTSTDTVYMELRSLTSEDTALYFCATSPGYDFFDYWGQGTLVTVSS VL: SYELTQPPSVSVAPGKTARITCGGDNIGSKSVHWYQQKPGQAPVLVVYDDSDRPSGIPERFSGSNSGNTATLTINRVEAGDEADYYCQVWDSSNDLLIFGGGTKLTVLG: 1.29e+06 M⁻¹ s⁻¹

// moving on: another record for kon
Lab book: kon of anti-mutCALR antibody clone 184 (antibody, human IgG1, lambda, N297A, V domains shown, human IgG1 N297A variant of clone 17) VH: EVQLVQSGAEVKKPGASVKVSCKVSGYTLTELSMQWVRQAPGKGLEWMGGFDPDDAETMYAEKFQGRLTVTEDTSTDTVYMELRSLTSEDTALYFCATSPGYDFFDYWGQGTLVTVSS VL: SYVLTQPPSVSVAPGQTARITCGGSDIGDEIVHWYQQKPGQAPVLVVYDDSDRPSGIPERFSGSNSGNTATLTISRVEAGDEADYYCQVWDSSSDHLIFGGGTKLTVLG noted as 428000 M⁻¹ s⁻¹

Source: patent US20230272055A1
